biological target: T1, human MSLN-FL-his protein (human, UniProt Q13421 296-580); experiment: ELISA, coated antigen, antibody 20 nM
T1 construct: Made in HEK293E cells, purified on nickel column; also called hMSLN-FL-his; human MSLN full-length protein; not shown: His tag
T1 sequence (Q13421 other isoform, or with tags, fused parts or gaps): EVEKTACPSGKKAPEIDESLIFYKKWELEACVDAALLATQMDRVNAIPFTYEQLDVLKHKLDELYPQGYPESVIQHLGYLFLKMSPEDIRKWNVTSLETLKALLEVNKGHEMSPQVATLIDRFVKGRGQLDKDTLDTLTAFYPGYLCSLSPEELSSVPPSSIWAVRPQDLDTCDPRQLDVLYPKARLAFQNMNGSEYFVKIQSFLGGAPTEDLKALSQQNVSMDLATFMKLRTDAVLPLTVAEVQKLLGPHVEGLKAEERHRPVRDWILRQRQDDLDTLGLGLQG
Measurement label: OD450
Answer using only a numeral; do not append any unit.

S009-F7.69.8 chimeric antibody (antibody, human IgG1, kappa, V domains shown, Human-murine chimeric antibody, human IgG1/kappa constant regions) VH: EVHLQQSGPELVKPGASVRIPCKASGYTFTDYNMDWVKQSHGKSLEWIGDINPDNGGTIYTQKFKGKATLTVDKSSSTAYMELRSLTSEDTAVYYCARRLHYYGSSGLDYWGQGTTLTVSS VL: DIQMTQSPASLSAYVGETVTITCRASGNIHNYLAWYQQKQGKSPQLLVYNAKTLADGVPSRFSGSGSGTQYSLKINSLQPEDFGSYYCQHFWSTVWTFGGGTKLEIKR = 2.26

Read the next record carefully.
Item: S009-F7.2.3 chimeric antibody (antibody, human IgG1, kappa, V domains shown, Human-murine chimeric antibody, human IgG1/kappa constant regions) VH: ELQLVESGGDLVKPGGSLKLSCAASGFTFSSNGMSWLRQTPDKRLEWVATISSGGRYTYYPDSVKGRFTISRDNAKNTLYLQMSSLKSEDTAMYYCARRGIYDYFDCWGQGTTLTVSS VL: DIQMTQSPASLSISVGETVTITCRASENIHSSLAWYQQKQGKSPQLLVYAATNLADGVPSRFSGSGSGSQYSLKINSLQSEDFGTYYCQHFWGTPWTFGGGTKLDIKR | OD450: 2.5
